# credit: ChEMBL document CHEMBL5728921

target: Phosphatidylinositol 3-kinase catalytic subunit type 3 (Homo sapiens); test: Biochemical Assay: Dilution series of compounds of the invention were prepared in DMSO at 100 times the final assay concentration (n1=n0/3 in 10 points). The compounds were further diluted to 4 times the assay concentration in assay buffer (Life technologies buffer Q, PV5125, diluted 5 times supplemented with 2 mM DTT and 2 mM MnCl2). 2.5 μl of the diluted compounds were added to a 384 well assay plate followed by 2.5 μl of 16.5 nM Vps34 enzyme (Life technologies, PV5126). Enzyme and compounds were pre-incubated at rt for 15 min. Then 5 μl of substrate mix containing 20 μM ATP (Life technologies, PV3227) and 200 μM PI:PS substrate (Life technologies, PV5122) in assay buffer was added to the wells containing compound and enzyme. Mixing was performed by pipetting several times. The reaction was incubated at room temperature for 1 h. Then 5 μl stop-detection mix, prepared as described in the Adapta kinase assay kit instructions (Life technologies, PV5099) containing Adapta Eu-anti-ADP antibody (2.3 nM), Alexa Fluor 647 ADP tracer (9 nM) and EDTA (30 mM) in TR-FRET buffer, was added to quench the reaction. Mixing was performed by pipetting several times. The assay plate was then incubated at room temperature for 30 min and read with Artemis micro plate reader. Percent inhibition of the compounds as compared to DMSO treated control samples was calculated.
Sequence (Q8NEB9 whole entry): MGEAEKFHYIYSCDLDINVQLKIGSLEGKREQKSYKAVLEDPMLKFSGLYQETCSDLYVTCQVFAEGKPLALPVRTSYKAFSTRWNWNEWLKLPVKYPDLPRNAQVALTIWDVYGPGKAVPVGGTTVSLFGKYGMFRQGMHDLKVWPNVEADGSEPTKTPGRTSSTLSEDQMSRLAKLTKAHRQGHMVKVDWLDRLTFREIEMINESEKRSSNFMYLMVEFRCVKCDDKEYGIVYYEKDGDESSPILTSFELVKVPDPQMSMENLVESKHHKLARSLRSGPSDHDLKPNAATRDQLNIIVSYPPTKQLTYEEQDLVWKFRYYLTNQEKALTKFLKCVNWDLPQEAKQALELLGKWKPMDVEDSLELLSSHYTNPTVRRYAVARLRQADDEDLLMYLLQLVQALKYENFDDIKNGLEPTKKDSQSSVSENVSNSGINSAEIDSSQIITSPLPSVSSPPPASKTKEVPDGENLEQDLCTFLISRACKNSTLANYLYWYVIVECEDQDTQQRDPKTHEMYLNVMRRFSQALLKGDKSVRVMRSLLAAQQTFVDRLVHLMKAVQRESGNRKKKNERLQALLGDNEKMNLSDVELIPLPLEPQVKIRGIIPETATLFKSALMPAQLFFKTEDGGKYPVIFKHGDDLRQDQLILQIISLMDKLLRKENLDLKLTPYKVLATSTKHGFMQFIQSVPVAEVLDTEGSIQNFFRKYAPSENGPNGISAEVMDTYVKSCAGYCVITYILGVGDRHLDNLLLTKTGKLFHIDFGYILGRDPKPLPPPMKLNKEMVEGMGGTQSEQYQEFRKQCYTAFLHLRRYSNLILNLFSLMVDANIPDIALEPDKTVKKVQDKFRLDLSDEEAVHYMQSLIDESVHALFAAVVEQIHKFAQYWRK
pIC50: −log10 of the molar value.
Quantity Kind: pIC50

[
  {
    "Smiles Input": "CC(=O)Nc1cc(-c2cc(-c3ccccc3Cl)[nH]c(=O)c2)ccn1",
    "Measured Result": "> 8.30"
  }
]
